# studySystem: T1, human C1s (human, UniProt P09871 16-688)
# T1 construct: Analyte in the Biacore assays; also called hC1s; serum-derived human C1s (CompTech)
# T1 sequence: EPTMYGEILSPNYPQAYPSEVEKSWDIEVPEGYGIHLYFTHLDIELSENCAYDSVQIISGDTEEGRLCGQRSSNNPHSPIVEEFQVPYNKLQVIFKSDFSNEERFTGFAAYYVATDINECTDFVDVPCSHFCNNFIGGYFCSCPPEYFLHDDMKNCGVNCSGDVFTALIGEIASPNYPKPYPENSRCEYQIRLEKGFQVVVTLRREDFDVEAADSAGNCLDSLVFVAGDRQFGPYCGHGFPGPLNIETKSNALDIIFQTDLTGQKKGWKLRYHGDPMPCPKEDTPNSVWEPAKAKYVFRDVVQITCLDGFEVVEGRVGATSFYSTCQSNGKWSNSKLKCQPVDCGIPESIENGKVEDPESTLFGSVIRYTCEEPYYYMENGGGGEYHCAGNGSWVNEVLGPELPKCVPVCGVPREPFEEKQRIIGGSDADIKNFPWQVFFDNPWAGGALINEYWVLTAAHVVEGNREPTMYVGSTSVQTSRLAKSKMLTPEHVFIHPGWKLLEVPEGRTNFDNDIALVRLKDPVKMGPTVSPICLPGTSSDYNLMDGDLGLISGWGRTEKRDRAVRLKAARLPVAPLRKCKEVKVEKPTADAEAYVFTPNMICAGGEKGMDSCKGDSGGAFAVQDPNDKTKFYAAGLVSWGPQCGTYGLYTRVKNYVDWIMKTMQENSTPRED
# test: SPR (Biacore T200, 37C), Ab captured on protein A/G; pH 5.8, 3 uM Ca
measurementName: pKd
Recall that pKd is obtained by taking minus log10 of the concentration measured in molar.

binder	number
C1_IPN92H0281-SG4GK/IPN93L0091-SK1 (antibody, human IgG4 S228P, kappa, name in Kabat numbering, V domains shown, Substitutions from IPN009VH2 / IPN009VK3, Kabat numbering; also called IPN92H0281/IPN93L0091) VH: EVMLVESGGGLVKPGGSLRLSCAASGFTFSNYAMSWVRQAPGKGLEWVATISSGGSKTYELDSVDERFTISRDNSKDTLYLQMNSLRAEDTALYYCARLFTKHAMDYWGQGTLVTVSS VL: QIVLTQSPATLSLSPGERATLSCTASSSVSSSRLHWYQQKPGKAPKLWIYSTSNLASGVPSRFSGSGSGTDYTLTISSLQPEDFATYYCHQYYRLHPITFGQGTKLEIKR	8.41

Now take the following binder into account.
# return recorded pKd for input C1_IPN92H0232-SG4GK/IPN93L0024-SK1 (antibody, human IgG4 S228P, kappa, name in Kabat numbering, V domains shown, Substitutions from IPN009VH2, Kabat numbering; also called IPN92H0232/IPN93L0024) VH: EVMLVESGGGLVKPGGSLRLSCAASGFTFSNYAMSWVRQAPGKGLEWVATISSGGSHTYYLDSVKGRFTISRDNSKDTLYLQMNSLRAEDTALYYCARLFTRHAMDYWGQGTLVTVSS VL: QIVLTQSPATLSLSPGERATLSCTASSSVSSSYLHWYQQKPGKAPKLWIYSTSNLASGVPSRFSGSGSGTDYTLTISSLQPEDFATYYCHQYYRLHPITFGQGTKLEIKR 8.28
